target: antibodies against ISV in serum sample IHUS#B09032311A20; assay: ECL drug-displacement assay vs labelled SEQ ID NO:1
OBSERVED PROPERTY: ECLU confirmatory assay (ECLU)

The cases that follow already have their ECLU confirmatory assay on record.
SEQ ID NO: 23, Wildtype VHH (VHH) VHH: EVQLVESGGGLVQAGGSLRLSCAASGRTFNNYAMGWFRRAPGKEREFVAAITRSGVRSGVSAIYGDSVKDRFTISRDNAKNTLYLQMNSLKPEDTAVYTCAASAIGSGALRRFEYDYSGQGTQVTVSS = 8680
SEQ ID NO: 26, Wildtype VHH + Q108L (VHH) VHH: EVQLVESGGGLVQAGGSLRLSCAASGRTFNNYAMGWFRRAPGKEREFVAAITRSGVRSGVSAIYGDSVKDRFTISRDNAKNTLYLQMNSLKPEDTAVYTCAASAIGSGALRRFEYDYSGQGTLVTVSS = 6990

[1] SEQ ID NO: 24, Wildtype VHH + A14P (VHH) VHH: EVQLVESGGGLVQPGGSLRLSCAASGRTFNNYAMGWFRRAPGKEREFVAAITRSGVRSGVSAIYGDSVKDRFTISRDNAKNTLYLQMNSLKPEDTAVYTCAASAIGSGALRRFEYDYSGQGTQVTVSS
[2] SEQ ID NO: 25, Wildtype VHH + K83R (VHH) VHH: EVQLVESGGGLVQAGGSLRLSCAASGRTFNNYAMGWFRRAPGKEREFVAAITRSGVRSGVSAIYGDSVKDRFTISRDNAKNTLYLQMNSLRPEDTAVYTCAASAIGSGALRRFEYDYSGQGTQVTVSS
Of the two listed items, which has the higher ECLU confirmatory assay? First: 1 Second: 2 Lab log: write the label of the selected item as the result.
2
(2: 6910 ECLU, 1: 668 ECLU)
